Mu-type opioid receptor (Mus musculus): recorded Ki for assorted compounds
Sequence (P42866 whole entry): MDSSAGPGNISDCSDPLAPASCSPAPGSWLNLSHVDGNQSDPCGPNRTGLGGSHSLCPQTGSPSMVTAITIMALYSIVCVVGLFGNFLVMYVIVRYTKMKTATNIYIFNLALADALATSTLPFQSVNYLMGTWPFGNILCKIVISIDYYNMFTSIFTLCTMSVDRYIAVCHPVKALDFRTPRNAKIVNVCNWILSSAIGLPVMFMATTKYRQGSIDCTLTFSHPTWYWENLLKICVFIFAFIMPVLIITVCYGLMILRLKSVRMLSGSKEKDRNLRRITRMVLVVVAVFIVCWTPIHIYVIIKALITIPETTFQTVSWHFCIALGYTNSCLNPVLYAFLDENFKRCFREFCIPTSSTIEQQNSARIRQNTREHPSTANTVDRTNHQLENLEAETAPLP
# answer = value followed by unit

chem smiles | test result
Cc1nnc(C(C)C)n1[C@H]1C[C@H]2CC[C@@H](C1)N2CC[C@H](NC(=O)C1CCC(F)(F)CC1)c1cccc(NC(=O)COCC(=O)NCCCCCCCNC(=O)COCC(=O)N[C@@H]2CC[C@@]3(O)[C@H]4Cc5ccc(O)c6c5[C@@]3(CCN4CC3CC3)[C@H]2O6)c1 | 10 nM
CNC(=O)COCC(=O)NCCCCCCCCCNC(=O)COCC(=O)N[C@@H]1CC[C@@]2(O)[C@H]3Cc4ccc(O)c5c4[C@@]2(CCN3CC2CC2)[C@H]1O5 | 1.11 nM

Please turn your attention to the following entry.
Need Ki, item Cc1nnc(C(C)C)n1[C@H]1C[C@H]2CC[C@@H](C1)N2CC[C@H](NC(=O)C1CCC(F)(F)CC1)c1ccc(NC(=O)COCC(=O)NCCCCCNC(=O)COCC(=O)N[C@@H]2CC[C@@]3(O)[C@H]4Cc5ccc(O)c6c5[C@@]3(CCN4CC3CC3)[C@H]2O6)cc1 3.8 nM

---

- subject of test: C-C chemokine receptor type 5 (Homo sapiens, UniProt P51681)
- Sequence (P51681 whole entry, looked up): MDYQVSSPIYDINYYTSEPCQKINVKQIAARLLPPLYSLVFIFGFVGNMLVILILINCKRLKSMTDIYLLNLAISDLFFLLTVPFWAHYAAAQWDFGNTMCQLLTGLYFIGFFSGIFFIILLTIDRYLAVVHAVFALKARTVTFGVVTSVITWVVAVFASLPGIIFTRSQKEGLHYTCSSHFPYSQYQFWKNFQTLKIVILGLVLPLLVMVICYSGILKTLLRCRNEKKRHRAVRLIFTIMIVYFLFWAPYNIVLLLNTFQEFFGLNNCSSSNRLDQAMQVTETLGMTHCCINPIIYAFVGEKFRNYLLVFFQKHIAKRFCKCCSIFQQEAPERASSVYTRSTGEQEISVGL
- test description: Agonist activity at CCR5 receptor in human MOLT4 cells transfected with Gqi5 assessed as calcium mobilization incubated for 15 mins by Fluo-4AM dye based fluorescence analysis
- Format: functional, cell-based
- conditions: MOLT-4
Calls of active or inactive are those of the source. The calls are words filed in the database; no cut-off is given here.

chem smiles | subject of test | Activity
CNC(=O)COCC(=O)NCCCCCNC(=O)COCC(=O)Nc1ccc([C@H](CCN2[C@@H]3CC[C@H]2C[C@@H](n2c(C)nnc2C(C)C)C3)NC(=O)C2CCC(F)(F)CC2)cc1 | C-C chemokine receptor type 5 (Homo sapiens, UniProt P51681) | inactive
Cc1nnc(C(C)C)n1[C@H]1C[C@H]2CC[C@@H](C1)N2CC[C@H](NC(=O)C1CCC(F)(F)CC1)c1ccc(NC(=O)COCC(=O)NCCCCCCCCCNC(=O)COCC(=O)N[C@@H]2CC[C@@]3(O)[C@H]4Cc5ccc(O)c6c5[C@@]3(CCN4CC3CC3)[C@H]2O6)cc1 | C-C chemokine receptor type 5 (Homo sapiens, UniProt P51681) | inactive

---

- subject of test: Mu-type opioid receptor (Homo sapiens, UniProt P35372)
- Sequence (P35372 whole entry): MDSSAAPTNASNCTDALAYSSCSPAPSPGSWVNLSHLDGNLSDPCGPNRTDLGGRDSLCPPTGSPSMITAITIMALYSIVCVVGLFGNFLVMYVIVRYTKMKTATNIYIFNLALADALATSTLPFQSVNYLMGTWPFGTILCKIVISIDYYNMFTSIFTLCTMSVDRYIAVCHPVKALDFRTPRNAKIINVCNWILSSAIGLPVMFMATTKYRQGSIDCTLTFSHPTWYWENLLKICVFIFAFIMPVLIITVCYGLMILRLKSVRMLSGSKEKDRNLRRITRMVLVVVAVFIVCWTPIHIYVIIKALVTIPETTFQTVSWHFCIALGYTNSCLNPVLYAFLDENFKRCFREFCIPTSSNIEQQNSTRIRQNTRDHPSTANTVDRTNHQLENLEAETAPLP
- test description: Antagonist activity at human MOR transfected in CHO cells co-transfected with Gqi5 assessed as inhibition of DAMGO-induced calcium mobilization incubated for 15 mins prior to DAMGO addition and measured for 90 secs by Fluo-4AM dye based fluorescence analysis
observable: IC50

chem smiles | IC50
Cc1nnc(C(C)C)n1[C@H]1C[C@H]2CC[C@@H](C1)N2CC[C@H](NC(=O)C1CCC(F)(F)CC1)c1cccc(NC(=O)COCC(=O)NCCCCCCCNC(=O)COCC(=O)N[C@@H]2CC[C@@]3(O)[C@H]4Cc5ccc(O)c6c5[C@@]3(CCN4CC3CC3)[C@H]2O6)c1 | 17.1 nM
Cc1nnc(C(C)C)n1[C@H]1C[C@H]2CC[C@@H](C1)N2CC[C@H](NC(=O)C1CCC(F)(F)CC1)c1ccc(NC(=O)COCC(=O)NCCCCCCCCCNC(=O)COCC(=O)N[C@@H]2CC[C@@]3(O)[C@H]4Cc5ccc(O)c6c5[C@@]3(CCN4CC3CC3)[C@H]2O6)cc1 | 21.9 nM
CNC(=O)COCC(=O)NCCCCCNC(=O)COCC(=O)N[C@@H]1CC[C@@]2(O)[C@H]3Cc4ccc(O)c5c4[C@@]2(CCN3CC2CC2)[C@H]1O5 | 92.1 nM
Cc1nnc(C(C)C)n1[C@H]1C[C@H]2CC[C@@H](C1)N2CC[C@H](NC(=O)C1CCC(F)(F)CC1)c1ccc(NC(=O)COCC(=O)NCCCCCNC(=O)COCC(=O)N[C@@H]2CC[C@@]3(O)[C@H]4Cc5ccc(O)c6c5[C@@]3(CCN4CC3CC3)[C@H]2O6)cc1 | 21.8 nM
CNC(=O)COCC(=O)NCCCCCCCCCNC(=O)COCC(=O)N[C@@H]1CC[C@@]2(O)[C@H]3Cc4ccc(O)c5c4[C@@]2(CCN3CC2CC2)[C@H]1O5 | 41.4 nM

Let's switch to this molecule now.
What does the record list as IC50 for Cc1nnc(C(C)C)n1[C@H]1C[C@H]2CC[C@@H](C1)N2CC[C@H](NC(=O)C1CCC(F)(F)CC1)c1ccc(NC(=O)COCC(=O)NCCCCCCCNC(=O)COCC(=O)N[C@@H]2CC[C@@]3(O)[C@H]4Cc5ccc(O)c6c5[C@@]3(CCN4CC3CC3)[C@H]2O6)cc1 ? 40 nM
